Measured viscosity accompanies every entry in the list below.
ASSAY_DETAILS: xn = mol fraction of the nth substance listed
CONDITION_PARAMETERS: 313.15 K; 101 kPa; Liquid; Falling or rolling sphere viscometry; x1 = 0.5
Your answer is read as mPa·s, so omit the unit and give the number.

CCCC(=O)OCC [ethyl butanoate] + CC(C)CCO
0.7907
CCCC(=O)OCC [ethyl butanoate] + CCCCO
0.7053
CCCC(=O)OCC [ethyl butanoate] + CC(C)CO
0.7166

Please look at the following compound next.
The reported value for CCCC(=O)OCC [ethyl butanoate] + CCCCCCO in terms of viscosity is 0.9099

###

CONDITION_PARAMETERS: 318.15 K; 101 kPa; Liquid; Vibrating tube method
OBSERVED_PROPERTY: mass density (kg/m3)
Please give a number only; it is taken to be in kg/m3.

CCCCCCO [hexan-1-ol]
800.56
CC(C)CO [2-methyl-1-propanol]
782.26
CCCO [propan-1-ol]
783.36
CCCC(=O)OCC [ethyl butanoate]
852.36

Form: compound = CCCCO [butan-1-ol] ; mass density = 790.28

What the record says about CC(C)CCO [3-methylbutan-1-ol] : mass density is 789.67

###

ASSAY_DETAILS: xn = mol fraction of the nth substance listed
CONDITION_PARAMETERS: 308.15 K; 101 kPa; Liquid; Falling or rolling sphere viscometry; x1 = 0.5
# viscosity annotations
Report only the number, with the unit mPa·s understood.

Known viscosity results, listed for orientation:
CCCC(=O)OCC [ethyl butanoate] + CCCCO
0.7542
CCCC(=O)OCC [ethyl butanoate] + CCCCCCO
0.9852
CCCC(=O)OCC [ethyl butanoate] + CC(C)CCO
0.853

As a next step, examine the molecule that follows.
The molecule listed as CCCC(=O)OCC [ethyl butanoate] + CC(C)CO shows viscosity equal to 0.7709

###

ASSAY_DETAILS: xn = mol fraction of the nth substance listed
CONDITION_PARAMETERS: 293.15 K; 101 kPa; Liquid; Vibrating tube method; x1 = 0.5
Below, each entry is listed alongside its reported mass density.
Output spec: scalar in kg/m3, unitless text.

Here is how some molecules turned out for mass density.
CCCC(=O)OCC [ethyl butanoate] + CCCCO
849.32
CCCC(=O)OCC [ethyl butanoate] + CCCCCCO
848.18
CCCC(=O)OCC [ethyl butanoate] + CC(C)CO
845.64

Please examine the following record next.
The molecule identified as CCCC(=O)OCC [ethyl butanoate] + CC(C)CCO registered its mass density at 846.15

###

Some compounds, each annotated with its measured mass density.
ASSAY_DETAILS: xn = mol fraction of the nth substance listed
CONDITION_PARAMETERS: 318.15 K; 101 kPa; Liquid; Vibrating tube method; x1 = 0.5
± gives the expanded uncertainty stated by the source.

// mass density value for CCCC(=O)OCC [ethyl butanoate] + CC(C)CCO : 822.78 ± 0.27 kg/m3

###

CONDITION_PARAMETERS: 293.15 K; 101 kPa; Liquid; Vibrating tube method
OBSERVED_PROPERTY: mass density (kg/m3)
The answer is to be given in kg/m3; state only the numeric part.

CC(C)CO [2-methyl-1-propanol]
802.03
CC(C)CCO [3-methylbutan-1-ol]
808.58
CCCCO [butan-1-ol]
809.66
CCCO [propan-1-ol]
803.77
CCCCCCO [hexan-1-ol]
818.7

Now for a further molecule.
Documented mass density of CCCC(=O)OCC [ethyl butanoate] : 878.9

###

CONDITION_PARAMETERS: 288.15 K; 101 kPa; Liquid; Vibrating tube method
Entries and their mass density values follow.
Give the number; kg/m3 is assumed, so skip it.

// worked examples, mass density included
CCCCCCO
822.26
CCCC(=O)OCC [ethyl butanoate]
884.16
CC(C)CCO
812.29
CCCO
807.75
CC(C)CO
805.88

Per the records, this compound ( `CCCCO` ) has mass density equal to 813.46

###

Items are presented alongside their recorded mass density.
ASSAY_DETAILS: xn = mol fraction of the nth substance listed
CONDITION_PARAMETERS: 298.15 K; 101 kPa; Liquid; Vibrating tube method; x1 = 0.5
Give the number; kg/m3 is assumed, so skip it.

// CCCC(=O)OCC [ethyl butanoate] + CC(C)CO : mass density value = 840.84

Note to self: mass density recorded for CCCC(=O)OCC [ethyl butanoate] + CCCCCCO was 843.72

// mass density lookup, molecule = CCCC(=O)OCC [ethyl butanoate] + CC(C)CCO , result: 841.51

# molecule CCCC(=O)OCC [ethyl butanoate] + CCCCO ; its mass density = 844.57

###

ASSAY_DETAILS: xn = mol fraction of the nth substance listed
CONDITION_PARAMETERS: 293.15 K; 101 kPa; Liquid; Falling or rolling sphere viscometry; x1 = 0.5
Catalogue of viscosity values
Kindly provide the numeric value in mPa·s only, without the unit symbol.

Solved cases below.
CCCC(=O)OCC [ethyl butanoate] + CC(C)CO
0.9727
CCCC(=O)OCC [ethyl butanoate] + CCCCO
0.9419
CCCC(=O)OCC [ethyl butanoate] + CC(C)CCO
1.086

Field: next compound
Sample CCCC(=O)OCC [ethyl butanoate] + CCCCCCO ; viscosity observed: 1.274

###

CONDITION_PARAMETERS: 318.15 K; 101 kPa; Liquid; Falling or rolling sphere viscometry
Respond with t for viscosity values of 2 mPa·s and above, f for values below.

Worked cases, answers included:
CCCC(=O)OCC [ethyl butanoate]
f
CCCCO [butan-1-ol]
f
CC(C)CO [2-methyl-1-propanol]
f
CC(C)CCO [3-methylbutan-1-ol]
t
CCCCCCO [hexan-1-ol]
t

Then there is this compound:
Please check the record CCCO [propan-1-ol] and state if its viscosity is at or above 2 mPa·s.
f

###

CONDITION_PARAMETERS: 293.15 K; 101 kPa; Liquid; Falling or rolling sphere viscometry
Numbers after ± are expanded uncertainties.
Catalogue of viscosity readings, one per entry.

Reference set, count: 5
CC(C)CO
4.052 ± 0.086 mPa·s
CCCCO
2.913 ± 0.062 mPa·s
CC(C)CCO
4.288 ± 0.094 mPa·s
CCCCCCO
5.332 ± 0.12 mPa·s
CCCC(=O)OCC [ethyl butanoate]
0.6808 ± 0.015 mPa·s

Query `CCCO` yields viscosity of 2.208 ± 0.047 mPa·s

###

Below is a list of entries, each paired with its recorded viscosity value.
ASSAY_DETAILS: xn = mol fraction of the nth substance listed
CONDITION_PARAMETERS: 323.15 K; 101 kPa; Liquid; Falling or rolling sphere viscometry; x1 = 0.5
Quick note: give the figure in mPa·s, leave out the unit.

CCCC(=O)OCC [ethyl butanoate] + CC(C)CO
0.6257

Measured viscosity of CCCC(=O)OCC [ethyl butanoate] + CC(C)CCO : 0.6838

Item: CCCC(=O)OCC [ethyl butanoate] + CCCCO | viscosity: 0.6163

Value of measured viscosity for the entry CCCC(=O)OCC [ethyl butanoate] + CCCCCCO : 0.788

###

CONDITION_PARAMETERS: 298.15 K; 101 kPa; Liquid; Vibrating tube method
OBSERVED_PROPERTY: mass density (kg/m3)
Give just the number in kg/m3; leave the unit off.

Check out these entries, answers already filled in.
CC(C)CCO
804.84
CC(C)CO
798.16

Now let's try a different one.
Reported mass density for CCCC(=O)OCC [ethyl butanoate] was 873.62

###

ASSAY_DETAILS: xn = mol fraction of the nth substance listed
CONDITION_PARAMETERS: 323.15 K; 101 kPa; Liquid; Vibrating tube method; x1 = 0.5
OBSERVED_PROPERTY: mass density (kg/m3)
The reply should be a number in kg/m3, with the unit left off.

Use these answered entries as a reference point.
CCCC(=O)OCC [ethyl butanoate] + CC(C)CO
816.36
CCCC(=O)OCC [ethyl butanoate] + CCCCCCO
821.13
CCCC(=O)OCC [ethyl butanoate] + CCCCO
820.45

Lab note: next molecule to report on.
Entry CCCC(=O)OCC [ethyl butanoate] + CC(C)CCO — recorded mass density = 818.03

###

Catalogue of viscosity values
CONDITION_PARAMETERS: 308.15 K; 101 kPa; Liquid; Falling or rolling sphere viscometry
Expressed in mPa·s, but write only the number.

Previously resolved entries follow.
CC(C)CO
2.505
CC(C)CCO
2.73
CCCCCCO
3.361
CCCC(=O)OCC [ethyl butanoate]
0.5736
CCCO
1.542

Form field viscosity, entry `CCCCO` : 1.994

Entry source: the NIST ThermoML archive (doi:10.1021/je5005752)
